Origin of values: ChEMBL document CHEMBL3407401

Assay: Cytotoxicity against human UW228-2 cells assessed as inhibition of cell survival at 25 ug/ml after 24 hrs by MTT assay
Type: functional
Conditions: UW228-2, 24 h
OBSERVATION_TYPE: inhibition at 25 µg/mL (%)
Report the value in % with no unit label.

O=C1Nc2ccc(Cl)cc2/C1=N/NC(=O)c1ccccc1NC(=O)c1ccc([N+](=O)[O-])cc1; 41.6
Cc1cc(Br)cc2c1NC(=O)/C2=C1\SC(=S)NC1=O; 51.4

We next turn to a different molecule, shown below.
Req: # input molecule: O=C1Nc2ccc(Cl)cc2/C1=N/n1c(-c2cccs2)nc2ccccc2c1=O ; wanted: its inhibition at 25 µg/mL
Resp: 28.4

###

Entries and their inhibition at 25 µg/mL
System: Daoy
Assay: Cytotoxicity against human DaOY cells assessed as inhibition of cell survival at 25 ug/ml after 24 hrs by MTT assay
Format: functional
Report the value in % with no unit label.

Cc1ccc(-c2nc3ccccc3c(=O)n2/N=C2\C(=O)Nc3ccc(C)cc32)cc1; 47
COc1ccc2c(c1)/C(=N/NC(=O)c1ccccc1NC(=O)c1ccc([N+](=O)[O-])cc1)C(=O)N2; 11.1

We next turn to a different molecule, shown below.
Req: # input molecule: Cc1ccc2c(c1)/C(=N/NC(=O)c1ccccc1NC(=O)c1ccc([N+](=O)[O-])cc1)C(=O)N2 ; wanted: its inhibition at 25 µg/mL
Resp: 62.7

###

Experiment: Cytotoxicity against human UW228-2 cells assessed as inhibition of cell survival after 24 hrs by MTT assay
Type: functional, cell-based
Settings: UW228-2, 24 h
OBSERVATION_TYPE: IC50
Kindly report the value followed by its unit.

Cc1ccc(C(=O)Nc2ccccc2C(=O)N/N=C2\C(=O)Nc3ccc(Cl)cc32)cc1; 6.87 µg/mL
Cc1ccc(C(=O)Nc2ccccc2C(=O)N/N=C2\C(=O)Nc3ccccc32)cc1; 6.06 µg/mL
Cc1cc(Br)cc2c1NC(=O)/C2=C1\SC(=S)NC1=O; 16.4 µg/mL
Cc1ccc(-c2nc3ccccc3c(=O)n2/N=C2\C(=O)Nc3ccc(Cl)cc32)cc1; 5.7 µg/mL
COc1ccc2c(c1)/C(=N/n1c(-c3ccc(C)cc3)nc3ccccc3c1=O)C(=O)N2; 20.8 µg/mL
O=C1Nc2ccccc2/C1=N/NC(=O)c1ccccc1NC(=O)c1ccc([N+](=O)[O-])cc1; 20 µg/mL
COc1ccc2c(c1)/C(=N/NC(=O)c1ccccc1NC(=O)c1ccc(C)cc1)C(=O)N2; 5.82 µg/mL
Cc1ccc2c(c1)/C(=N/NC(=O)c1ccccc1NC(=O)c1ccc([N+](=O)[O-])cc1)C(=O)N2; 9.62 µg/mL

Req: # input compound: COc1ccc2c(c1)/C(=N/n1c(-c3cccs3)nc3ccccc3c1=O)C(=O)N2 ; wanted: its IC50
Resp: 21.4 µg/mL

###

Test system: MDA-MB-231
Test: Cytotoxicity against human MDA-MB-231 cells assessed as inhibition of cell survival at 25 ug/ml after 24 hrs by MTT assay
Format: functional
Conditions: MDA-MB-231, 24 h
inhibition at 25 µg/mL vs 20%: at or above is met, below is not met.

# example entries with known answers
COc1ccc2c(c1)/C(=N/NC(=O)c1ccccc1NC(=O)c1ccc([N+](=O)[O-])cc1)C(=O)N2; met
O=C1Nc2ccccc2/C1=N/NC(=O)c1ccccc1NC(=O)c1ccc([N+](=O)[O-])cc1; met
O=C1Nc2ccc(Cl)cc2/C1=N/NC(=O)c1ccccc1NC(=O)c1ccc([N+](=O)[O-])cc1; met
O=C1Nc2ccc([N+](=O)[O-])cc2/C1=N/n1c(-c2cccs2)nc2ccccc2c1=O; not met
COc1ccc2c(c1)/C(=N/NC(=O)c1ccccc1NC(=O)c1ccc(C)cc1)C(=O)N2; met
COc1ccc2c(c1)/C(=N/n1c(-c3cccs3)nc3ccccc3c1=O)C(=O)N2; not met
COc1ccc2c(c1)/C(=N/n1c(-c3ccc(C)cc3)nc3ccccc3c1=O)C(=O)N2; met
Cc1cc(Br)cc2c1NC(=O)/C2=C1\SC(=S)NC1=O; met

Req: Is inhibition at 25 µg/mL at least 20%? Consider O=C1Nc2ccccc2/C1=N/n1c(-c2cccs2)nc2ccccc2c1=O
Resp: not met

Req: # repeat for Cc1ccc(-c2nc3ccccc3c(=O)n2/N=C2\C(=O)Nc3ccc([N+](=O)[O-])cc32)cc1
Resp: met

Req: # repeat for Cc1ccc(C(=O)Nc2ccccc2C(=O)N/N=C2\C(=O)Nc3ccc([N+](=O)[O-])cc32)cc1
Resp: met
